test: solvent given as SMILES; conditions: in c1ccccc1
Rule: absorption maximum below 400 nm gives Yes. Equal to or above 400 nm gives No.

Please determine if CCC1=C(C)C(=O)n2c1cc1c(CCC(=O)OC)c(C)c(C)n1c2=O is below 400 nm in terms of absorption maximum. No

Hello, is absorption maximum of the following compound strictly smaller than 400 nm? CN(C)c1ccc(/C=C/C=C2\CC/C(=C\C=C\c3ccc(N(C)C)cc3)C2=O)cc1 No

Just wondering, is absorption maximum of CCC1=C(C)C2=C(C)c3c(C)c(CC)c(C)n3[B-](F)(F)[N+]2=C1C below 400 nm? No

Would you kindly verify if absorption maximum of CC(C)[Si]1(C(C)C)c2ccccc2-c2ccc(N(C)C)cc21 is strictly less than 400 nm? Yes

Quick check: does CCC1=C(C)C(=O)n2c1cc1c(C)c(CCC(=O)O)c(C)n1c2=O have absorption maximum under 400 nm? No

absorption maximum under 400 nm? Item: Oc1cccc(/N=C/c2ccccc2Oc2ccccc2)c1 Yes

In the record for CC1(C)CC(/C=C/c2ccc(-n3c4ccccc4c4ccccc43)cc2)=CC(=C(C#N)C#N)C1 , is absorption maximum less than 400 nm? No

In plain terms, does CC(C)(C)C1Nc2c(Cl)cc(Cl)cc2C(=O)N1Cc1ccccc1 (stereo not given) come in under 400 nm for absorption maximum? Yes

I wonder whether CC1(C)CCc2c(c3ccccc3c3nc4ccccc4nc23)O1 has absorption maximum below 400 nm. Can you tell? No

Hello, is absorption maximum of the following compound strictly smaller than 400 nm? COC(=O)C(Cc1ccc2oc(-c3ccc4c(c3)c3ccccc3n4-c3ccccc3)nc2c1)NC(=O)OC(C)(C)C (stereo not given) Yes

For this compound, is absorption maximum lower than 400 nm? CCC1(CC)c2cc(C=C(C#N)C#N)ccc2-c2ccc(N(C)C)cc21 No

Please check: absorption maximum for Cc1nc2c(ccc3ccc(N(C)C)cc32)oc1=O , strictly under 400 nm or not? No

Does the reported absorption maximum of Cc1cc(-c2ccccc2)nc2c1ccc1nc(-c3ccccc3)cn12 stay below 400 nm? Yes

Criterion: absorption maximum strictly below 400 nm. Is it met by CN(C)c1ccc(/C=C/C(=O)O)cc1 ? Yes

is_below(absorption maximum, 400 nm) for COc1ccc(-c2cc(-c3ccc(C)cc3)nc3c(C#N)c(N4CCCC4)nc(N)c23)cc1 ? No

Say whether its absorption maximum is strictly beneath 400 nm. Entry: CN(C)c1ccc2c(c1)-c1ccccc1C2=O No

Identify whether the compound CCOC(=O)CSc1nc2c(c(C#N)c1C#N)CCCC2 records absorption maximum below 400 nm. Yes
